Each record here notes measured melting point.

CHEMICAL_STRING: Cl.O=C(O)c1ccc(C(=O)/C=C/c2cc(-c3cccs3)ccc2OCCCN2CCOCC2)cc1
melting point: 234 to 236 °C
--
CHEMICAL_STRING: COc1cc(OCC(N)=O)c(/C=C/C(=O)c2ccc(C(=O)O)cc2)cc1-c1cccs1
melting point: 235 °C (dec.)
--
CHEMICAL_STRING: CCOC(=O)CNC(=O)Nc1ccc(C(=O)/C=C/c2ccc(-c3cccs3)cc2)cc1
melting point: 209 to 212 °C

From here, focus on the item given below.
For COc1cc(OC)c(-c2nc3cccnc3[nH]2)cc1/C=C/C(=O)c1ccc(C(=O)O)cc1 , what is its reported melting point?
222 to 224 °C

* * *

This section presents molecules with their documented melting point values.

Example entries and their recorded answers appear below.
CHEMICAL_STRING: COc1cc(OC)c(-c2cnccn2)cc1/C=C/C(=O)c1ccc(C(=O)O)cc1
melting point: 238 °C (dec.)

CHEMICAL_STRING: COc1cc(OC)c(-c2cc3ccccc3s2)cc1/C=C/C(=O)c1ccc(N)cc1
melting point: 98 to 104 °C

CHEMICAL_STRING: COc1cc(OC)c(-c2cc3ccccc3s2)cc1/C=C/C(=O)c1ccc(S(=O)(=O)c2ccccc2)cc1
melting point: 127 to 128 °C

Given the molecule COc1cc(OC)c(-c2cc3ccccc3s2)cc1/C=C/C(=O)c1ccc(C(N)=O)cc1 , what is its reported melting point?
240 to 241 °C

Returns the measured melting point for the input molecule. Input: COc1cc(OC)c(-c2cn[nH]c2)cc1/C=C/C(=O)c1ccc(C(=O)O)cc1
> 250 °C

* * *

Catalogue of molecules with associated melting point

Some molecules with recorded melting point:
CHEMICAL_STRING: COc1cc(OCCCN2CCOCC2)c(/C=C/C(=O)c2ccc(C(N)=O)cc2)cc1-c1cccs1
melting point: 81 to 83 °C
//
CHEMICAL_STRING: COc1cc(OC)c(-c2cccs2)cc1/C=C/C(=O)c1ccccc1C(=O)O
melting point: 196 to 198 °C

I would be grateful if you could share the reported melting point for O=C(O)c1ccc(C(=O)/C=C/c2ccc(F)c(-c3cccs3)c2)cc1 .
242 to 244 °C

Would you mind telling me what melting point value was observed for COc1ccc(-c2cccs2)cc1/C=C/C(=O)c1ccc(C(=O)O)cc1 ?
195 to 196 °C

Fill in the blank: the reported melting point of COc1cc(/C=C/C(=O)c2ccc(N)cc2)cc(-c2cccs2)c1OC is ____.
67 to 71 °C

Recorded melting point of COc1cc(OC)c(-c2cc3ccccc3[nH]2)cc1/C=C/C(=O)c1ccc(S(N)(=O)=O)cc1 , please.
185 to 187 °C

Name the recorded melting point for COc1cc(/C=C/C(=O)c2ccc(NS(C)(=O)=O)cc2)cc(-c2cccs2)c1OC .
71 to 75 °C

Quick check: melting point of COCCOCCOCCOc1cc(OC)c(-c2cccs2)cc1/C=C/C(=O)c1ccc(C(=O)O)cc1 ?
137 to 138 °C

# query: melting point of entry COc1cc(OC)c(-c2cc3ccccc3n2C)cc1/C=C/C(=O)c1ccc(C(=O)O)cc1
157 to 160 °C
